# study system: T1, full-length PcrV.6xhis (Pseudomonas aeruginosa)
# T1 construct: Recombinant full-length V-tip protein of the type 3 secretion system, His-tagged; also called full-length PcrV with a C-terminal hexahistidine tag
# assay info: SPR (Biacore T200), mAb captured via anti-human Fc, PcrV injected, 25 C
pKd: −log10 of the molar value.

binder	qual	pKd
H1H29332P (antibody, V domains shown) VH: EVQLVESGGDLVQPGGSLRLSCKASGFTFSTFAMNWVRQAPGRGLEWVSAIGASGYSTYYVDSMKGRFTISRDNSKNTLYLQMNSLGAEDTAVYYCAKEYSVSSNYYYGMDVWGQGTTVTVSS VL: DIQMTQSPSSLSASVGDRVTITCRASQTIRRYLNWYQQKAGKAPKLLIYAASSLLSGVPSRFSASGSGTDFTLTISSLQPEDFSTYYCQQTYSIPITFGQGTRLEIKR	=	10.26
H1H29339P (antibody, V domains shown) VH: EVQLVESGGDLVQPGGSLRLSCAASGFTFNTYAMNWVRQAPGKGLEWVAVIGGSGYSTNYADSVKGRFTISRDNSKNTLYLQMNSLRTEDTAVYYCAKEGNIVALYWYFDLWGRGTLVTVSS VL: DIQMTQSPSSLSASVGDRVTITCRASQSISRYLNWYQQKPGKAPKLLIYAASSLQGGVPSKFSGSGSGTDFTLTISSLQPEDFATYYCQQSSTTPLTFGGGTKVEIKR	≥	10.56
H1H29329P (antibody, V domains shown) VH: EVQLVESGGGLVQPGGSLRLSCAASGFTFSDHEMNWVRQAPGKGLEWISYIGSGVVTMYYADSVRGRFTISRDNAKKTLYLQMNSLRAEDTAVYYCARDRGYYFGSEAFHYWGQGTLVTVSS VL: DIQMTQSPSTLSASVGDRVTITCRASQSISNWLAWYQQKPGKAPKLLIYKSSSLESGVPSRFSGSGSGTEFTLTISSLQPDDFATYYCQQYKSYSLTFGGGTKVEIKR	=	8.29
REGN3977 (antibody, V domains shown, also called Control III; REGN3977-Control III) VH: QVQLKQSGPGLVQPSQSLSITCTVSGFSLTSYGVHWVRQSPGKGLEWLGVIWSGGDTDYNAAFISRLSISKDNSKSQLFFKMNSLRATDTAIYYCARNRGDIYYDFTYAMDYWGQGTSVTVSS VL: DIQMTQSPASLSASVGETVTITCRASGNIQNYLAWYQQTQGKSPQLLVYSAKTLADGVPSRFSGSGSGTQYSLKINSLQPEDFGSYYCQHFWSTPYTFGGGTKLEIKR	=	8.62
REGN3514 (antibody, V domains shown, also called Control I; Control I-REGN3514) VH: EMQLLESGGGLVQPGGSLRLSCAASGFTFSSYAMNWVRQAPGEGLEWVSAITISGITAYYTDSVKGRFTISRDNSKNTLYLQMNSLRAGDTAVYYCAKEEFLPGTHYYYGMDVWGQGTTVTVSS VL: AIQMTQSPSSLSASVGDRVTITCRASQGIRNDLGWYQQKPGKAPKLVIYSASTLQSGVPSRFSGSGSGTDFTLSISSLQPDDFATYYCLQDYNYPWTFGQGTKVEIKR	=	9.84
H1H29336P (antibody, V domains shown) VH: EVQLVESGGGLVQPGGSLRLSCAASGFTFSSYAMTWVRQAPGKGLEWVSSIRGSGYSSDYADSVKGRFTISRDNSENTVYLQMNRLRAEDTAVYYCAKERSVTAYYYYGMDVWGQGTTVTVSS VL: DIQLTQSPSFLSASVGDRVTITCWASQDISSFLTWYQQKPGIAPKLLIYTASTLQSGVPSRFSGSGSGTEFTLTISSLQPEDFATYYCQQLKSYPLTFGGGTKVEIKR	≥	10.69

These data points were gathered from patent US20260184768A1.
